Biological target: GCase (Homo sapiens)
Construct: screened toward GCase in leukocytes isolated from healthy donors (controls); from tissue; host or cells: leukocytes isolated from healthy donors, disrupted by sonication
Sequence (P04062 40-536): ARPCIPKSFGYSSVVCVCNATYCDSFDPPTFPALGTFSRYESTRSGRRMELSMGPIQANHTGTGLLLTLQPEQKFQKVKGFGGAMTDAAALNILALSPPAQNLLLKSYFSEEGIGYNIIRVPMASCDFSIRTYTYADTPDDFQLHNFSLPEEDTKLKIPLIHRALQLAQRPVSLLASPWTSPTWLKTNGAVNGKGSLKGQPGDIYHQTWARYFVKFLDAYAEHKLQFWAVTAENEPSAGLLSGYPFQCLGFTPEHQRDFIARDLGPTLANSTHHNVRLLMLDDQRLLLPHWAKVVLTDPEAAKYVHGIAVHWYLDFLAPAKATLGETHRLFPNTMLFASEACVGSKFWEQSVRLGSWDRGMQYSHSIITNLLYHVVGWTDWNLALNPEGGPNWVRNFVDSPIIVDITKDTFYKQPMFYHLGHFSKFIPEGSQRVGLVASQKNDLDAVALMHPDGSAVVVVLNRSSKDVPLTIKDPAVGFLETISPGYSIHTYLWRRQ
Assay: GCase inhibition in human leukocyte homogenates
Format: biochemical
Details: human leukocytes from healthy donors; substrate 4-methylumbelliferyl-β-D-glucoside 3.33 mM
measured_endpoint: IC50 (µM)
// return numeric value only (unit: µM, not printed)

molecule | experimental_target | IC50 / µM
CCCCCCCC[C@@H]1[C@@H](O)[C@H](O)[C@H](O)CN1CCCCCCCC | GCase (Homo sapiens) | 15
CCCCCCCC[C@@H]1[C@@H](O)[C@H](O)[C@H](O)CN1C(CCCCCCC)CCCCCCC.Cl [compound 33·HCl] | GCase (Homo sapiens) | 130

Consider the additional molecule presented here.
Prompt: Looking for the measured IC50 of CCCCCCCC[C@H]1[C@@H](O)[C@H](O)[C@H](O)CN1CCCCCCCC , can you help?
Completion: 100
